# credit: patent US20260274948A1

- TESTED ON: T1, TRBC2 (T-cell receptor beta constant region 2) (human, UniProt A0A5B9 1-129, limits assumed)
- T1 construct: also called TCR beta-constant region 2
- T1 sequence (A0A5B9 1-129 limits assumed): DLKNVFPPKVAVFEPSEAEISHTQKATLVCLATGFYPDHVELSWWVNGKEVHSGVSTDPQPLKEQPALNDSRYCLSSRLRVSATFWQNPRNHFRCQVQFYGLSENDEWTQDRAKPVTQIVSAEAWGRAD
- ASSAY SUMMARY: ELISA
MEASURE: binding result

- Jovi Hum 19 (antibody, V domains shown, also called H-AF 5) VH: QVQLVQSGAEVKKPGASVKVSCKASGYTFTGYVMHWVRQAPGQGLEWIGFINPYNDDIQSNERFRGRVTMTRDTSISTAYMELSRLRSDDTAVYYCARGAGYNFDGAYRFFDFWGQGTMVTVSS VL: DIVMTQSPLSLPVTPGEPASISCRSSQRLVHSNGNTYLHWYLQKPGQSPRLLIYRVSNRFPGVPDRFSGSGSGTDFTLKISRVEAEDVGVYYCSQSTHVPYTFGQGTKLEIK: no binding
- Jovi Hum 20 (antibody, V domains shown, also called H-AF 6) VH: QVQLVQSGAEVKKPGASVKVSCKASGYTFTGYVMHWVRQAPGQGLEWIGFINPYNDDIQSNERFRGRVTMTRDKSISTAYMELSRLRSDDTAVYYCARGAGYNFDGAYRFFDFWGQGTMVTVSS VL: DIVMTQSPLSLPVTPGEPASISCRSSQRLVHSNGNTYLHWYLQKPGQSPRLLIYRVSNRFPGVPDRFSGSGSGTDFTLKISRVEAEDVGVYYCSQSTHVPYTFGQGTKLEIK: no binding
- Jovi Hum 18 (antibody, V domains shown, also called H-AF 4) VH: QVQLVQSGAEVKKPGASVKVSCKASGYTFTGYVMHWVRQAPGQGLEWMGFINPYNDDIQSNERFRGRVTMTSDKSISTAYMELSRLRSDDTAVYYCARGAGYNFDGAYRFFDFWGQGTMVTVSS VL: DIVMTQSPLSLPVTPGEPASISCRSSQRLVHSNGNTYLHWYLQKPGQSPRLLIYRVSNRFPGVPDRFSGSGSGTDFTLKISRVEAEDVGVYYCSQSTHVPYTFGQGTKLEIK: no binding
- Jovi Hum 16 (antibody, V domains shown, also called H-AF 2) VH: QVQLVQSGAEVKKPGASVKVSCKASGYTFTGYVMHWVRQAPGQGLEWMGFINPYNDDIQSNERFRGRVTMTRDKSISTAYMELSRLRSDDTAVYYCARGAGYNFDGAYRFFDFWGQGTMVTVSS VL: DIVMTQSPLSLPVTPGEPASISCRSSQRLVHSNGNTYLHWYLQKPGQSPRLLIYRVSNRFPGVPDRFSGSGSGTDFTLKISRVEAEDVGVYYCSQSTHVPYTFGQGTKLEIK: no binding
- Jovi Hum 17 (antibody, V domains shown, also called H-AF 3) VH: QVQLVQSGAEVKKPGASVKVSCKASGYTFTGYVMHWVRQAPGQGLEWMGFINPYNDDIQSNERFRGRVTMTSDTSISTAYMELSRLRSDDTAVYYCARGAGYNFDGAYRFFDFWGQGTMVTVSS VL: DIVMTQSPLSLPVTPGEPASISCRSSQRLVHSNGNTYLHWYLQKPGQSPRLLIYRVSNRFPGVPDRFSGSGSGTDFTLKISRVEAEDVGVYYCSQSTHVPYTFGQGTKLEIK: no binding
- Jovi Hum 26 (antibody, V domains shown, also called H-AF 12) VH: QVQLVQSGAEVKKPGASVKMSCKASGYTFTGYVMHWVRQAPGQGLEWMGFINPYNDDIQSNERFRGRVTMTSDKSISTAYMELSRLRSDDTAVYYCARGAGYNFDGAYRFFDFWGQGTMVTVSS VL: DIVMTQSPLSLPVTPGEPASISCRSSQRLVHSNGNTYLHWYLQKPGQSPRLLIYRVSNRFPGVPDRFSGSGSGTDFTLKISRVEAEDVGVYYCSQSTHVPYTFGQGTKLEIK: no binding
- Jovi Hum 8 (antibody, V domains shown, H-AF 1 carries no back-mutation (Q3, V20, M48, R71, T73), i.e. the plain H-AF062256 graft; also called H-AF 1; H-AF1, 3aaz) VH: QVQLVQSGAEVKKPGASVKVSCKASGYTFTGYVMHWVRQAPGQGLEWMGFINPYNDDIQSNERFRGRVTMTRDTSISTAYMELSRLRSDDTAVYYCARGAGYNFDGAYRFFDFWGQGTMVTVSS VL: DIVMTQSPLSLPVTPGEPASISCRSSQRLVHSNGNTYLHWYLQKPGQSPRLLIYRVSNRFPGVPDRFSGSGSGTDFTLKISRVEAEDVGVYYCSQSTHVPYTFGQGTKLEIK: no binding

What value of binding result has been reported for the following binder? Jovi Hum 27 (antibody, V domains shown, also called H-AF 13) VH: QVQLVQSGAEVKKPGASVKMSCKASGYTFTGYVMHWVRQAPGQGLEWIGFINPYNDDIQSNERFRGRVTMTRDTSISTAYMELSRLRSDDTAVYYCARGAGYNFDGAYRFFDFWGQGTMVTVSS VL: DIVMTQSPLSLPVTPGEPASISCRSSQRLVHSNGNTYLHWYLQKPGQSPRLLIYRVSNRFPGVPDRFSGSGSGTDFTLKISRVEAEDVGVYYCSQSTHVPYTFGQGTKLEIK no binding
